Reference source: ChEMBL document CHEMBL2385007

Test: Cytotoxicity against human HEL cells
Format: cell-based
TEST READOUT: MCC

{"COMPOUND": "COC(=O)[C@@H](NP(=O)(Oc1cccc2ccccc12)O[C@@H]1O[C@H](CO)[C@@H](O)C1(F)F)C(C)C (mixture of isomers)", "TEST READOUT": "MCC", "RESULT": "≥ 100 µM"}
{"COMPOUND": "COC(=O)[C@@H](NP(=O)(Oc1ccccc1)O[C@@H]1O[C@H](CO)[C@@H](O)C1(F)F)C(C)C (mixture of isomers)", "TEST READOUT": "MCC", "RESULT": "≥ 100 µM"}
{"COMPOUND": "COC(=O)[C@H](C)NP(=O)(Oc1cccc2ccccc12)O[C@H]1O[C@H](CO)[C@@H](O)C1(F)F (mixture of isomers)", "TEST READOUT": "MCC", "RESULT": "≥ 100 µM"}

---

# EC50 per record follows
Tested on: Felid alphaherpesvirus 1
Assay: Antiviral activity against Feline herpesvirus in cat CrFK cells assessed as plaque formation
Assay type: functional, organism-based
Conditions: Felid alphaherpesvirus 1, CRFK

{"COMPOUND": "COC(=O)[C@@H](NP(=O)(Oc1ccccc1)O[C@H]1O[C@H](CO)[C@@H](O)C1(F)F)C(C)C (mixture of isomers)", "EC50": "> 20 µM"}
{"COMPOUND": "COC(=O)[C@@H](NP(=O)(Oc1cccc2ccccc12)O[C@H]1O[C@H](CO)[C@@H](O)C1(F)F)C(C)C (mixture of isomers)", "EC50": "> 20 µM"}
{"COMPOUND": "COC(=O)[C@H](C)NP(=O)(Oc1ccccc1)O[C@H]1O[C@H](CO)[C@@H](O)C1(F)F (mixture of isomers)", "EC50": "> 20 µM"}
